Origin of the recorded values: patent US12600740B2

- Test system: mouse astrocytes
- test: Propidium iodide/calcein AM toxicity on astrocytes
- Assay type: cell-based
- experimentalParameters: 100 μM, 48 hours
- Experimental: Toxicity on astrocytes was assayed with propidium iodide/calcein AM […]. Live cells convert calcein AM into a green fluorescent product, whereas dying/dead cells are stained with propidium iodide. […] A mixture was created containing propidium iodide (10 μg/ml) to stain dead cells, 10 μM Calcein AM (ThermoFisher, #C3100MP) to identify live cells, and 2 drops per ml of media of NucBlue™ Live ReadyProbes™ Reagent (ThermoFisher, #R37605) to identify nuclei. […]
attributeMeasured: toxicity on astrocytes (propidium iodide/calcein AM)

Solved entries (count: 5):
CCCC(=O)OC1OC(COC(C)=O)[C@@H](F)[C@H](OC(C)=O)C1NC(C)=O (mixture of isomers): did not produce toxicity
CCC(=O)OC1OC(COC(C)=O)[C@@H](F)[C@H](OC(C)=O)C1NC(C)=O (stereo partly drawn): did not produce toxicity
CC(=O)NC1C(O)OC(COC(C)=O)[C@@H](F)[C@@H]1OC(C)=O (mixture of isomers): did not produce toxicity
CC(=O)NC1C(OC(C)=O)OC(COC(C)=O)[C@H](F)[C@@H]1OC(C)=O (mixture of isomers): did not produce toxicity
CC(=O)NC1C(OC(C)=O)OC(COC(C)=O)C(F)(F)[C@@H]1OC(C)=O (mixture of isomers): did not produce toxicity

Alright, here's another compound for you.
Recorded toxicity on astrocytes (propidium iodide/calcein AM) of CC(=O)NC1C(OC(C)=O)OC(COC(C)=O)[C@@H](F)C1OC(C)=O (stereo partly drawn) [Compound 3, reference compound] , please.
did not produce toxicity

====

- Tested on: TNFα
- test: TNFα ELISA of LPS-stimulated bone marrow-derived macrophages
- Type: cell-based, mouse
- experimentalParameters: BMDMs, 50 μM, LPS 100 ng/ml, 24 hours
attributeMeasured: TNFα production by LPS-stimulated macrophages

CC(=O)O[C@H]1OC[C@@H](F)[C@H](OC(C)=O)[C@H]1OC(C)=O: enhanced TNFα levels
CC(=O)NC1C(O)OC(COC(C)=O)[C@@H](F)[C@@H]1OC(C)=O (mixture of isomers): enhanced TNFα levels
CCC(=O)OCC1OC(O)C(NC(C)=O)C(OC(=O)CC)[C@@H]1F (mixture of isomers): enhanced TNFα levels

====

- Test system: splenocytes
- test: Splenocyte thymidine proliferation assay (anti-CD3/anti-CD28)
- Format: cell-based, mouse
- experimentalParameters: activated splenocytes; significance class
attributeMeasured: Reduce T cell proliferation

CC(=O)NC1C(OC(C)=O)OC(COC(C)=O)[C@@H](F)C1OC(C)=O (some centres unmarked) [Compound 3, reference compound]: **** (****p < 0.0001)
COC[C@H]1OC(OC(C)=O)[C@H](NC(C)=O)[C@@H](OC)[C@@H]1F (some centres unmarked): n.s.
CO[C@H]1[C@H](F)[C@@H](COC(C)=O)OC(OC(C)=O)[C@@H]1NC(C)=O (some centres unmarked): n.s.
CC(=O)N[C@H]1[C@H](OC(C)=O)O[C@H](COC(C)=O)[C@@H](OC(C)=O)[C@@H]1OC(C)=O [Compound 1, reference compound]: **** (****p < 0.0001)

Fill in: Reduce T cell proliferation of O[C@@H]1[C@@H](O)[C@H](OCc2ccccc2)OC[C@H]1O [Compound 19, reference compound] is ___
n.s.
